This section presents compounds with their documented cytotoxicity at 10 µM values.
ASSAY NOTES: Toxicity liver stage against HepG2, at 10uM
Assay type: cell-based
Parameters: test concentration 10 uM, cell line HepG2-A16-CD81EGFP
RUN CONDITIONS: human, HepG2-A16-CD81EGFP cells; read-out: INHIBITION

# COMPOUND, cytotoxicity at 10 µM, %
rows = [
    ("O=C(C1=CCCCC1)N1CCO[C@H]2[C@H](Oc3ccccn3)CC[C@@H]21", 5.08),
    ("CN1CCN(C(=O)[C@H]2C[C@@H]3CCN(c4ncc(F)cn4)C[C@@H]3O2)CC1", -6.69),
    ("Cn1ccnc1C(=O)N1CCOC(Cc2ccc(Cl)cc2)C1 (centres undefined)", 9.23),
    ("COc1cccc(C2(C(=O)NC3CCc4nccn4C3)CCCC2)c1 (centres undefined)", 2.74),
    ("N#Cc1c2n(c3c(=O)[nH]cnc13)CCCC2", 2.45),
    ("Cc1ccc(CN(Cc2cc(C)no2)C2CC2)cc1", -5.17),
    ("O=C1COc2ccccc2N1CCCn1cnnn1", 6.05),
    ("O=C1COC2(CCN(C(=O)c3cnccn3)CC2)CN1CC1CC1", -16),
    ("O=C1CC2(CCN(C(=O)c3ccccn3)CC2)Oc2c(Br)cc(Br)cc21", 11.5),
]

---

This section presents compounds with their documented cytotoxicity at 10 µM values.
ASSAY NOTES: Toxicity liver stage against HepG2, at 10uM
Type: cell-based
Parameters: test concentration 10 uM, cell line HepG2-A16-CD81EGFP
RUN CONDITIONS: human, HepG2-A16-CD81EGFP cells; read-out: INHIBITION

# COMPOUND, cytotoxicity at 10 µM
records = [
    ("O=C(NCCCn1cccn1)c1nc2ccccc2[nH]1", "-7.16%"),
    ("CCc1nc(N2CCCC(O)(CO)CC2)ncc1C (stereo not given)", "10.8%"),
    ("CC(C(=O)N1CCCC1)N1CCC(c2nccn2Cc2cscn2)CC1 (stereo not given)", "2.79%"),
    ("CCCNC(=O)c1cc(C2CCCN(Cc3ccccn3)C2)no1 (stereo not given)", "-32%"),
    ("O=S(=O)(C1CC1)N1CC[C@H]2OCC[C@@]2(COc2ncccc2F)C1", "-150%"),
    ("CCN(Cc1ccc(C)o1)C(=O)C(C)n1ccnc1C(C)C (stereo not given)", "7.66%"),
    ("Cc1cccc(CN2C[C@@H]3CCCO[C@@H]3[C@H](Nc3ccccn3)C2)n1", "0.939%"),
    ("c1cnc(Nc2cncc(C3CCCN(c4ncccn4)C3)n2)nc1 (stereo not given)", "-2.44%"),
    ("CCN(CCC(=O)OC)C(=O)c1cc(F)cc2[nH]cnc12", "-7.37%"),
    ("CCc1nnc(SCc2nonc2C)n1C", "-1.04%"),
    ("CC(C)Cc1cc(C(=O)N2CCCC(n3cncn3)C2)[nH]n1 (stereo not given)", "-3.9%"),
    ("COc1ncccc1CNC(=O)c1csc(Br)c1", "-8.03%"),
    ("CC(C)n1cc(CN(Cc2ccc(F)cc2)CC2CCCO2)cn1 (stereo not given)", "-3.47%"),
    ("Cc1cccc(CN2CCC3(CC2)CC(Oc2cccnc2)C3)n1", "12.7%"),
    ("CC(C)NC(=O)c1nc2c(s1)CCCN2C(C)C", "-143%"),
]
